Reference source for all entries: paper PMC8170132

molecular target: HLA-B*57:01 (Homo sapiens, UniProt P01889, D201E/D98Y/E176V/E187L/E204Q/E69M/E70A/G107R/I90N/K202T/L105A/L119I/N104I/N87E/Q89R/Q94S/R106L/R155S/R180L/R86G/S101N/S121V/S35A/S48A/T118I/V36M/Y140S/Y91M); experiment: LC-MRM-MS quantitation of HLA ligands and co-purified abacavir from abacavir treated C1R.B*57:01 cells; assay type: cell-based; conditions: linear regression of LC-MRM-MS peptide abundance over abacavir treatment time
Would you please tag the item met when its Linear regression slope is 0.03 or above, and not met when it is below?

polymer_sequence="ATFKGIVRAI [non-labelled HLA-B*57:01 ligand]" class=met
polymer_sequence="ITKTVVENI [HLA-B*57:01 ligand]" class="not met"
polymer_sequence=KTFIGTVRV class=met
polymer_sequence=TTWKPLNPNSW class="not met"
polymer_sequence=IVFPGSTGHI class=met

Exam item: Hi team, for KIADFGWSV , is the recorded Linear regression slope at or above 0.03?
Marked response: not met

Exam item: Hi team, for VTHSVRIGF , is the recorded Linear regression slope at or above 0.03?
Marked response: not met

Exam item: Hi team, for HSTDRVVLI , is the recorded Linear regression slope at or above 0.03?
Marked response: met

Exam item: Hi team, for STIRLLTSL , is the recorded Linear regression slope at or above 0.03?
Marked response: not met

Exam item: Hi team, for RVDPDVAQHW , is the recorded Linear regression slope at or above 0.03?
Marked response: not met

Exam item: Hi team, for YFDPANGKF , is the recorded Linear regression slope at or above 0.03?
Marked response: not met

Exam item: Hi team, for STLHLVLRL , is the recorded Linear regression slope at or above 0.03?
Marked response: not met

Exam item: Hi team, for RTLLEDGTFKV , is the recorded Linear regression slope at or above 0.03?
Marked response: met

Exam item: Hi team, for TSQAGLFRLW , is the recorded Linear regression slope at or above 0.03?
Marked response: not met

Exam item: Hi team, for IFDSKVTEI , is the recorded Linear regression slope at or above 0.03?
Marked response: not met

* * *

target: HLA-B*57:01fos (Homo sapiens, UniProt P01889, D201E/D98Y/E176V/E187L/E204Q/E69M/E70A/G107R/I90N/K202T/L105A/L119I/N104I/N87E/Q89R/Q94S/R106L/R155S/R180L/R86G/S101N/S121V/S35A/S48A/T118I/V36M/Y140S/Y91M); construct: Fos leucine zipper (C); made in house; assay: Fluorescence polarisation dissociation rate measurements; format: binding; settings: as Comp, plus tapasin-jun-ERp57 C60A and 60 µM abacavir; fluorescence polarisation, 25°C; one-phase decay, plateau 50 mP (unconstrained for RVD); 3-4 replicates
endpoint: Half life (hours) of dissociation from HLA-B*57:01fos, Comp+Tapasin+Abacavir (h)
Write the value in h as a bare number.

These recorded examples may help you get a feel for the data.
substance=RVDPAK*GLFYF test_result=0.26
substance=ATFK*GIVRAI test_result=33.59
substance=NTVELRVK*I test_result=142.70

Exam item: Provide measured Half life (hours) of dissociation from HLA-B*57:01fos, Comp+Tapasin+Abacavir value, entry: KTFK*DVGNLL
Marked response: 62.89
